Measured activity change, negative = cytotoxicity of individual entries
# test_protocol: Cell Viability - NIH 3T3 (AID 541);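 also: cells exposed to compound for 40 hours; plate controls were DMSO alone for no effect and tamoxifen positive control for full effect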
# stated_conditions: NIH 3T3 cell viability, qHTS; at 92.2 µM (top of the series)
Inconclusive results are not listed.
quantity: activity change, negative = cytotoxicity (%)

>>> print(df.to_string())
                                   compound                                  quantity  endpoint_unit  numeric_result
0                       CC(=O)/C=C/c1ccccc1  activity change, negative = cytotoxicity              %            -123
1                    COC(=O)c1ccccc1C(=O)OC  activity change, negative = cytotoxicity              %            2.58
2                 c1ccc(Nc2ccc3ccccc3c2)cc1  activity change, negative = cytotoxicity              %             -27
3          CC(C)COC(=O)c1ccccc1C(=O)OCC(C)C  activity change, negative = cytotoxicity              %           -26.2
4  CC(C)(c1ccc(OCC2CO2)cc1)c1ccc(OCC2CO2)cc1 (stereo unspecified)  activity change, negative = cytotoxicity              %           -5.07
5                               Oc1ccccc1Cl  activity change, negative = cytotoxicity              %           -20.7
